system: DU-145 prostate; assay: NCI-60 one-dose screen, 48 h; conditions: 10 µM
About 83,000 compounds went through this panel and 20% of them were active in at least one assay; those are over-represented in the sample as a whole. The source made the active and inactive calls. Rule for the calls: active = growth percent below 10; inactive = the rest.
Labels: Yes (active), No (inactive)

[
  {
    "ITEM SMILES": "O=C(Nc1cccc(-n2cc(-c3ccncc3)c(-c3ccc(O)c(Cl)c3)n2)c1)c1ccc(Cl)c(Cl)c1",
    "CATEGORY": "No"
  },
  {
    "ITEM SMILES": "COc1ccc(-c2nc3ncccn3c2-c2nnc(-c3ccc(F)cc3)o2)cc1",
    "CATEGORY": "No"
  },
  {
    "ITEM SMILES": "COc1cc(-c2nnc(-c3c(-c4ccc(F)cc4)nc4ccccn34)o2)cc(OC)c1OC",
    "CATEGORY": "No"
  },
  {
    "ITEM SMILES": "COc1ccc(-c2cc(/C=C/C(=O)c3cc(OC)c(OC)c(OC)c3)[nH]n2)cc1OC",
    "CATEGORY": "Yes"
  },
  {
    "ITEM SMILES": "COc1cc(NC(=O)CCSc2nc3ccc(C)cc3c(=O)n2Cc2ccccc2)cc(OC)c1OC",
    "CATEGORY": "No"
  }
]

###

tested on: COLO 205 colon; test: NCI-60 one-dose screen, 48 h (100 = growth as untreated, 0 = no growth, -100 = all killed); settings: 10 µM
The panel holds about 83,000 compounds, 20% with a hit somewhere; the sample as a whole holds those more often.
PROPERTY LABEL: growth (%)

[
  {
    "COMPOUND": "CCC1(C(C)C)NC(=O)NC1=O (stereo not given)",
    "PROPERTY LABEL": "growth",
    "READOUT VALUE": 115
  },
  {
    "COMPOUND": "CCOC(=O)N1C/C(=C/c2ccc(Cl)cc2)C(=O)/C(=C/c2ccc(Cl)cc2)C1",
    "PROPERTY LABEL": "growth",
    "READOUT VALUE": 45.3
  },
  {
    "COMPOUND": "Cn1c([N+](=O)[O-])cnc1/C=C1\\Oc2ccc(Cl)cc2C1=O",
    "PROPERTY LABEL": "growth",
    "READOUT VALUE": -41.6
  },
  {
    "COMPOUND": "COc1cc(Cl)cc(-c2nn(-c3cccc(NC(=O)c4ccc(Cl)c(Cl)c4)c3)cc2-c2ccncc2)c1",
    "PROPERTY LABEL": "growth",
    "READOUT VALUE": 81.5
  },
  {
    "COMPOUND": "COc1cc(NC(=O)CCSc2nc3ccc(Cl)cc3c(=O)n2Cc2ccccc2)cc(OC)c1OC",
    "PROPERTY LABEL": "growth",
    "READOUT VALUE": 107
  },
  {
    "COMPOUND": "CCOC(=O)C1(CC(C)C)CCOC1=O (stereo not given)",
    "PROPERTY LABEL": "growth",
    "READOUT VALUE": 115
  },
  {
    "COMPOUND": "Cc1ccc(NC(=O)Nc2c(Cl)cccc2Cl)cn1",
    "PROPERTY LABEL": "growth",
    "READOUT VALUE": 135
  },
  {
    "COMPOUND": "c1ccc2c(c1)oc1c3c(ccc12)NCCC3",
    "PROPERTY LABEL": "growth",
    "READOUT VALUE": 114
  },
  {
    "COMPOUND": "CC1CC(=O)OC(C)C1 (stereo not given)",
    "PROPERTY LABEL": "growth",
    "READOUT VALUE": 112
  },
  {
    "COMPOUND": "CC(=O)c1cc(Br)ccc1O",
    "PROPERTY LABEL": "growth",
    "READOUT VALUE": 121
  },
  {
    "COMPOUND": "CCCCOc1ccc(NC(=O)Nc2nnc(C)s2)cc1",
    "PROPERTY LABEL": "growth",
    "READOUT VALUE": 120
  },
  {
    "COMPOUND": "C=C(NC(=O)C(=C)NC(=O)c1csc(C2=NC3c4csc(n4)C4NC(=O)c5csc(n5)C(C(C)(O)C(C)O)NC(=O)C5CSC(=N5)/C(=C/C)NC(=O)C(C(C)O)NC(=O)c5csc(n5)C3(CC2)NC(=O)C(C)NC(=O)C(=C)NC(=O)C(=C)NC(=O)C(C(C)C)NC2C=Cc3c(C(C)O)cc(nc3C2O)C(=O)OC4C)n1)C(N)=O (stereo not given)",
    "PROPERTY LABEL": "growth",
    "READOUT VALUE": -70.2
  },
  {
    "COMPOUND": "O=C1/C(=C\\c2ccc(Cl)cc2)CN(C(=O)c2ccccc2)C/C1=C\\c1ccc(Cl)cc1",
    "PROPERTY LABEL": "growth",
    "READOUT VALUE": 32.9
  },
  {
    "COMPOUND": "CCOC1(OCC)OC(c2ccccc2)=C(C#N)C(/C=C\\c2ccccc2)C1(OCC)OCC (stereo not given)",
    "PROPERTY LABEL": "growth",
    "READOUT VALUE": 88.9
  },
  {
    "COMPOUND": "Nc1ccc2c(c1)C1(CCC2)NC(=O)NC1=O (stereo not given)",
    "PROPERTY LABEL": "growth",
    "READOUT VALUE": 105
  },
  {
    "COMPOUND": "COc1ccc(NC(=O)Cc2nc3nc4sc(C)c(C)c4c(=O)n3[nH]2)cc1",
    "PROPERTY LABEL": "growth",
    "READOUT VALUE": 118
  },
  {
    "COMPOUND": "COc1cc2cc3c(nc2cc1OC)CCN3Cc1ccc(NC(=O)c2ccc(Cl)c(C(F)(F)F)c2)cc1",
    "PROPERTY LABEL": "growth",
    "READOUT VALUE": 109
  },
  {
    "COMPOUND": "COc1cc(C(=O)/C=C/c2cc(-c3cc(OC)c(OC)c(OC)c3)n[nH]2)cc(OC)c1OC",
    "PROPERTY LABEL": "growth",
    "READOUT VALUE": -88.3
  },
  {
    "COMPOUND": "CN(C)Cc1cn(-c2ncc(-c3ccc(C(F)(F)F)cc3)c(NC3CCCCCC3)n2)nn1",
    "PROPERTY LABEL": "growth",
    "READOUT VALUE": 70.9
  },
  {
    "COMPOUND": "Cc1nc2oc3ccccc3c(=O)c2cc1C(=O)NCc1ccccc1",
    "PROPERTY LABEL": "growth",
    "READOUT VALUE": 39.9
  }
]

###

system: SF-295 CNS; experiment: NCI-60 one-dose screen, 48 h (100 = growth as untreated, 0 = no growth, -100 = all killed); conditions: 10 µM
The panel holds about 83,000 compounds, 20% with a hit somewhere; the sample as a whole holds those more often.
For each record, check the reported growth: if it is below 60% write yes (1), else write no (0).

[
  {
    "MOLECULE": "CN(C)CCOc1nc2ccccc2c2c1-c1ccc(Cl)cc1C2=O",
    "CATEGORY": "yes (1)"
  },
  {
    "MOLECULE": "O=C(CC(c1ccccc1)N1CCOCC1)c1ccccc1 (stereo unspecified)",
    "CATEGORY": "no (0)"
  },
  {
    "MOLECULE": "CCCCCCCCN(CCCCCCCC)CCCCCCCCCN1CCCc2cc(OC)ccc21",
    "CATEGORY": "no (0)"
  },
  {
    "MOLECULE": "COc1ccc(-c2nn(-c3cccc(NC(=O)c4ccc(Cl)c(Cl)c4)c3)cc2-c2ccncc2)cc1Cl",
    "CATEGORY": "no (0)"
  },
  {
    "MOLECULE": "CSc1nc(=O)n(Cc2ccc(Cl)cc2)c(=O)[nH]1",
    "CATEGORY": "no (0)"
  },
  {
    "MOLECULE": "O=C1NC(=O)N(Cc2ccccc2)CC1Br (stereo unspecified)",
    "CATEGORY": "no (0)"
  },
  {
    "MOLECULE": "CCOC(=O)C(=Cc1ccc(Br)cc1)C(=O)OCC",
    "CATEGORY": "yes (1)"
  },
  {
    "MOLECULE": "COc1ccc(-c2nc3sc(C4CC4)nn3c2/C=C2/C(=O)Nc3ccc(OC)cc32)cc1",
    "CATEGORY": "no (0)"
  },
  {
    "MOLECULE": "CCOC(=O)CCC(NC(=O)c1ccc(N)cc1)C(=O)OCC (stereo unspecified)",
    "CATEGORY": "no (0)"
  },
  {
    "MOLECULE": "O=C1ON=[N+](c2ccc(Cc3ccc([N+]4=NOC(=O)C4CN4CCOCC4)cc3)cc2)C1CN1CCOCC1 (stereo unspecified)",
    "CATEGORY": "yes (1)"
  },
  {
    "MOLECULE": "COc1ccc(Cl)cc1C(=O)Nc1nc2ccc(Cl)cc2s1",
    "CATEGORY": "no (0)"
  }
]

Data credit: PubChem BioAssay (NCI)
